# key: entry, value: IC50
Tested on: GS5 cells
Experiment: GS5 cell proliferation/viability (MTT, AlamarBlue)
Type: cell-based, human
Conditions: read-out: IC50 of candidate drugs on GS5 cells
Numbers only; they are read as µM.

Take a look at these entries with their results.
C[C@@H]1O[C@@H](O[C@@H]2C=C3CC[C@@H]4[C@H](CC[C@]5(C)[C@@H](c6ccc(=O)oc6)CC[C@]45O)[C@@]3(C)CC2)[C@H](O)[C@H](O)[C@H]1O = 0.1
COc1ccc(C[C@H]2NC[C@H](O)[C@H]2OC(C)=O)cc1 = 0.3

**Query** Please supply the value of reported IC50 for the item O=S(=O)([O-])[O-].[Fe+2] [Iron(II) sulfate heptahydrate]
**Result** 32.1

**Query** Please supply the value of reported IC50 for the item CC1=C2N=C(C=C3N=C(C(C)=C4[N-]C(C(CC(N)=O)C4(C)CCC(=O)NCC(C)OP(=O)([O-])OC4C(CO)OC(n5cnc6cc(C)c(C)cc65)C4O)C4(C)N=C1C(CCC(N)=O)C4(C)CC(N)=O)C(CCC(N)=O)C3(C)C)C(CCC(N)=O)C2(C)CC(N)=O.Cl.[Co+3].[OH-] (centres unmarked) [Hydroxocobalamin hydrochloride]
**Result** 32.1

**Query** Please supply the value of reported IC50 for the item CCC(=O)[O-].CCC(=O)[O-].[Ca+2] [Calcium propionate]
**Result** 29.5
